FYI, the data here is from the kinase profiling compilation of Christmann-Franck et al. (2016).

# residual activity per record follows
Tested System: DAPK1 (human)
Test Summary: radiometric filter-binding kinase assay, Kinase HotSpot
Measurement Context: compound 0.5 µM; ATP 10 µM
Observed Property: residual activity (%)

* Cc1cccc(-c2nc(C(C)(C)C)[nH]c2-c2ccc3c(c2)OCO3)n1 | 102
* Fc1ccc(-c2nc3n(c2-c2ccncc2)CCS3)cc1 | 100
* CC(C)(C)c1cc(C=C(C#N)C#N)cc(Br)c1O | 85.9
* O=C1NC(=O)c2c1c1c3ccccc3[nH]c1n1cncc21 | 26.6

###

Tested System: UniProtKB Q96SB4
Sequence (Q96SB4 whole entry, looked up): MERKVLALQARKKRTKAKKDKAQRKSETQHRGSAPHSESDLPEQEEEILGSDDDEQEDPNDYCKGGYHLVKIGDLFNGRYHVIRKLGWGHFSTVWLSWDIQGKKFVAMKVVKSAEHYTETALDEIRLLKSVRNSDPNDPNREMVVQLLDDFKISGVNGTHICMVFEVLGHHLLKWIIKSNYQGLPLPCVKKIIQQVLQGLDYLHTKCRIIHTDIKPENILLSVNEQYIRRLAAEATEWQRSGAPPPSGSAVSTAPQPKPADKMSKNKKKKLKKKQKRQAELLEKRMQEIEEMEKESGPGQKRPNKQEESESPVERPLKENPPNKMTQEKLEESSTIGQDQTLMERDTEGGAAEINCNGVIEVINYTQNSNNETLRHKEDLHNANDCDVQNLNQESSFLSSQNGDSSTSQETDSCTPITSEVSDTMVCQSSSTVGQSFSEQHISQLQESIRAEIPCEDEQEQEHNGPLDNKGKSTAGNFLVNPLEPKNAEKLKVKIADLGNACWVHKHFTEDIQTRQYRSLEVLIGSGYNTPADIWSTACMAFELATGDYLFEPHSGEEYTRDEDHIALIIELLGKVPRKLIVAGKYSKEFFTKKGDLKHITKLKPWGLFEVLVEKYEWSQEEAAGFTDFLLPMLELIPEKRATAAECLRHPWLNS
Test Summary: radiometric filter-binding kinase assay, Kinase HotSpot
Measurement Context: compound 0.5 µM; ATP 10 µM
Observed Property: residual activity (%)

• O=C1C(Cl)=C(N2C(=O)CCC2=O)C(=O)c2ccccc21 = 103
• COc1cc2ncnc(Nc3ccc(OCc4ccccc4)cc3)c2cc1OC = 105
• O=C1NC(=O)c2c1c1c3ccccc3[nH]c1n1cncc21 = 95.4
• COc1cc2ncnc(Nc3ccc(Oc4ccccc4)cc3)c2cc1OC = 105
• N#C/C(=C\c1ccc(O)c(O)c1)C(=O)NCc1ccccc1 = 104
• CS(=O)(=O)CCNCc1ccc(-c2ccc3ncnc(Nc4ccc(OCc5cccc(F)c5)c(Cl)c4)c3c2)o1 = 100
• Cc1cccc(-c2nc(C(C)(C)C)[nH]c2-c2ccc3c(c2)OCO3)n1 = 96.5

###

The entries below are paired with their reported residual activity.
System: MAP2K6 (human), P52564 [S207E/T211E]
Sequence (P52564 whole entry S207E/T211E, looked up): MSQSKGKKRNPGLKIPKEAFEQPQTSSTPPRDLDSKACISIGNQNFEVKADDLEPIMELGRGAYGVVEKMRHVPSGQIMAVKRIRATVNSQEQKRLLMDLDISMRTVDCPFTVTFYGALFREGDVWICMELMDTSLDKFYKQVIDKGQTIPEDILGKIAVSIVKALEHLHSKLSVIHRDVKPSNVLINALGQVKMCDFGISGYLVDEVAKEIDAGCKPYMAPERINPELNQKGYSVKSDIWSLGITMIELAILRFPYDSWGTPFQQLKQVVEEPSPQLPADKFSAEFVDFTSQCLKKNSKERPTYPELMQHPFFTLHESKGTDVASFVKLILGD
Test Summary: radiometric filter-binding kinase assay, Kinase HotSpot
Measurement Context: compound 0.5 µM; ATP 10 µM
Observed Property: residual activity (%)

* Cn1cc(/C=C2\C(=O)Nc3ccc(S(N)(=O)=O)cc32)c2ccccc21 | 116
* Nc1nc(Nc2ccc(S(N)(=O)=O)cc2)nn1C(=S)Nc1c(F)cccc1F | 62.7
* N#C/C(=C\c1ccc(O)c(O)c1)C(=O)NCc1ccccc1 | 127
* O=C1NC(=O)c2c1c1c3ccccc3[nH]c1c1[nH]c3cc(Br)ccc3c21 | 94.2
* O=C(Nc1cccc(Nc2nccc(Nc3cccc(C(F)(F)F)c3)n2)c1)C1CC1 | 98.3
* Cc1ccc(S(=O)(=O)/C=C/C#N)cc1 | 98.4
* CCN(CC)C(=O)c1ccc(Nc2nc(OCC3CCCCC3)c3nc[nH]c3n2)cc1 | 93.1
* CCOc1cc2ncnc(Nc3cccc(Br)c3)c2cc1OCC | 92.6

###

Tested System: HIPK3 (human) (UniProt Q9H422)
Sequence (Q9H422 whole entry, looked up): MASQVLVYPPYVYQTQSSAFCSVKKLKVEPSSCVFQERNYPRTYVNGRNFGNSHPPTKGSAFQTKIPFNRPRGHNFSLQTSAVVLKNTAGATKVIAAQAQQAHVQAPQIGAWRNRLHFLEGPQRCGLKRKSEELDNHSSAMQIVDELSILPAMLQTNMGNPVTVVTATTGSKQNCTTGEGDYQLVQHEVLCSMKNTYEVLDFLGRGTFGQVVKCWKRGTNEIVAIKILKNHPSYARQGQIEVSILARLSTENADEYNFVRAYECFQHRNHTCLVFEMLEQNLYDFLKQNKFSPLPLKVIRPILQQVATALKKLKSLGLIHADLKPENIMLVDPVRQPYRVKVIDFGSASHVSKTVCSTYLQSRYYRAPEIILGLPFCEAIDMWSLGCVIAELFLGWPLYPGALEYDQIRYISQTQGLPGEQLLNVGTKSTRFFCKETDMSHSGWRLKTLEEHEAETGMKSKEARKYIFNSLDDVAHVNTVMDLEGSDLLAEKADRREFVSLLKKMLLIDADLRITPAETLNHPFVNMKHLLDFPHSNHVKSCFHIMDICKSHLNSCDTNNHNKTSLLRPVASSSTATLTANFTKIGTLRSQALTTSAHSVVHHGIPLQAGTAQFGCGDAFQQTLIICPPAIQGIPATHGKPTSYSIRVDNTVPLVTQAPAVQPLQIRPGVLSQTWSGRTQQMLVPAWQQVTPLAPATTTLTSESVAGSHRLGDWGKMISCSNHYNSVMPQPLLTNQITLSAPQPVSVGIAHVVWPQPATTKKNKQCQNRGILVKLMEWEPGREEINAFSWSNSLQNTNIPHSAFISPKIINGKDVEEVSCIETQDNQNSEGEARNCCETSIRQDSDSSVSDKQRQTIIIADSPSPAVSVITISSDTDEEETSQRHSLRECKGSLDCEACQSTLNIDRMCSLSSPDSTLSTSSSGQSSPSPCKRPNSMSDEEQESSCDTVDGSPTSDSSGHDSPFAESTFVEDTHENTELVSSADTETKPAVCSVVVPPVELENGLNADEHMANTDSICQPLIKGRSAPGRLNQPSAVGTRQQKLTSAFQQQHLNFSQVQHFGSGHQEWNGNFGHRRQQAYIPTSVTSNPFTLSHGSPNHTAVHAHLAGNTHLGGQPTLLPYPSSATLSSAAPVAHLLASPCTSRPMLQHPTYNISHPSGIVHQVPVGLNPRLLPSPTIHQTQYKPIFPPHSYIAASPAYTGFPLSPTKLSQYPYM
Test Summary: radiometric filter-binding kinase assay, Kinase HotSpot
Measurement Context: compound 0.5 µM; ATP 10 µM
Observed Property: residual activity (%)

• C[C@@H]1CCN(C(=O)CC#N)C[C@@H]1N(C)c1ncnc2[nH]ccc12 = 100
• Cc1nc(-c2ccccc2)c(-c2ccncc2)o1 = 107
• Cn1c2ccccc2c2c3c(c4c5ccccc5n(CCC#N)c4c21)CNC3=O = 29.8
• COc1cc2ncnc(Nc3ccc(Oc4ccccc4)cc3)c2cc1OC = 103

###

Tested System: KDR (human)
Test Summary: radiometric filter-binding kinase assay, Kinase HotSpot
Measurement Context: compound 0.5 µM; ATP 10 µM
residual activity values for the compounds below.
Observed Property: residual activity (%)

• c1ccc2c(-c3ccncc3)c[nH]c2c1 = 94.2
• O=C1NC(=O)c2c1c1c3ccccc3[nH]c1n1cncc21 = 66.6
• CS(=O)(=O)CCNCc1ccc(-c2ccc3ncnc(Nc4ccc(OCc5cccc(F)c5)c(Cl)c4)c3c2)o1 = 96.6
• O=C1Nc2ccc(Br)cc2/C1=C\c1cc2c([nH]1)CCCC2 = 70.9
• N#C/C(=C\c1ccc(O)c(O)c1)C(=O)NCc1ccccc1 = 95.8
• Cn1c2ccccc2c2c3c(c4c5ccccc5n(CCC#N)c4c21)CNC3=O = 57
• O=C1c2ccccc2-c2nc3nnnn3nc21 = 1.95
• COc1ccc(S(=O)(=O)N(CCO)c2ccccc2CN(C)C/C=C/c2ccc(Cl)cc2)cc1 = 101
• COc1cc2ncnc(Nc3ccc(OCc4ccccc4)cc3)c2cc1OC = 96.8
• CN(C)S(=O)(=O)c1ccc2c(c1)/C(=C/c1cc3c([nH]1)CCCC3)C(=O)N2 = 96.9
